- Test system: cancer cells
- method-description: Survival rate of cancer cells after test compound is added (flow cytometry, Annexin V-FITC/PI, clinical specimen)
- Assay type: cell-based, patient
- condition-set: Homo sapiens, 18 h, Ovarian cancer; 20.0 μM; read-out: Survival rate (%) All cells (Stem cells and ordinary cells)
- Text: […]
value-kind: viability at 20 µM (%)
Kindly answer with a numeric value in %, unit omitted.

compound	value-kind	recorded-value
C=C1CC[C@H]2C(=C)CC[C@H]3C(=C)C(=O)O[C@@H]3[C@@H]12	viability at 20 µM	67
CC1=C2CC[C@@](C)(O)[C@@H]2[C@H]2OC(=O)[C@@H](CN(C)C)[C@@H]2CC1	viability at 20 µM	84
C=C1C(=O)O[C@@H]2[C@@H]3[C@@H](CC[C@@]3(C)O)[C@](C)(O)CC[C@@H]12	viability at 20 µM	88
CN(C)C[C@@H]1C(=O)O[C@H]2[C@H]1CCC1(CC1)[C@@H]1CCC3(CC3)[C@H]21	viability at 20 µM	84
[2H][C@@]1(CN(C)C)C(=O)O[C@@H]2[C@@H]3[C@@H](CCC34CC4)C3(CC[C@H]21)CC3	viability at 20 µM	81

Endpoint output: viability at 20 µM of C=C1C(=O)O[C@H]2[C@H]1CC[C@@](C)(OC)C1CC[C@@](C)(O)[C@@H]12 (stereo partly drawn) . Value? 88

---

viability at 20 µM values by entry
- Test system: cancer cells
- method-description: Survival rate of cancer cells after test compound is added (flow cytometry, Annexin V-FITC/PI, clinical specimen)
- Assay type: cell-based, patient
- condition-set: Homo sapiens, 18 h, Colon adenocarcinoma; 20.0 μM; read-out: Survival rate (%) All cells (Stem cells and ordinary cells)
Kindly answer with a numeric value in %, unit omitted.

Here are 3 molecules together with their reported answers.
C=C1C(=O)O[C@@H]2[C@@H]3[C@@H](CC[C@@]3(C)O)C(=C)CC[C@@H]12 56
CN(C)C[C@@H]1C(=O)O[C@H]2[C@H]1CCC1(CC1)[C@@H]1CCC3(CC3)[C@H]21 88
[2H][C@@]1(CN(C)C)C(=O)O[C@@H]2[C@@H]3[C@@H](CCC34CC4)C3(CC[C@H]21)CC3 86

Now consider a different molecule.
Endpoint output: viability at 20 µM of CC1=C2CC[C@@](C)(O)[C@@H]2[C@H]2OC(=O)[C@@H](CN(C)C)[C@@H]2CC1 . Value? 89

---

- Tested on: cancer stem cells
- method-description: Survival rate of cancer stem cells after test compound is added (flow cytometry, Annexin V-FITC/PI, clinical specimen)
- Type: cell-based, patient
- condition-set: Homo sapiens, 18 h, Liver cancer; 10.0 μM
viability at 10 µM values by entry
Kindly answer with a numeric value in %, unit omitted.

smiles-code	viability at 10 µM, %
[2H][C@@]1(CN(C)C)C(=O)O[C@@H]2[C@@H]3[C@@H](CCC34CC4)C3(CC[C@H]21)CC3	81
C=C1CC[C@H]2C(=C)CC[C@H]3C(=C)C(=O)O[C@@H]3[C@@H]12	52
C=C1C(=O)O[C@H]2[C@H]1CCC(C)=C1CC[C@@](C)(OC(=O)CCCc3cn(CCCCCCO)nn3)[C@@H]12	64
CCOC(=O)[C@@H]1CCCN1C[C@@H]1C(=O)O[C@H]2[C@H]1CCC1(CC1)[C@@H]1CCC3(CC3)[C@H]21	85
C=C1C(=O)O[C@@H]2[C@@H]3[C@@H](CC[C@@]3(C)O)[C@](C)(O)CC[C@@H]12	85
C=C1C(=O)O[C@@H]2[C@@H]3[C@@H](CC[C@@]3(C)O)C(=C)CC[C@@H]12	74

Now consider a different compound.
Endpoint output: viability at 10 µM of C=C1C(=O)O[C@@H]2[C@H]3C(C)=CC[C@@]34O[C@@]4(C)CC[C@@H]12 . Value? 53

---

viability at 10 µM values by entry
- System: normal cells
- method-description: Survival rate of normal cells after test compound is added (flow cytometry, Annexin V-FITC/PI)
- Assay type: cell-based
- condition-set: 18 h, 10.0 μM, read-out: Survival rate (%) All cells (Stem cells and ordinary cells)
Kindly answer with a numeric value in %, unit omitted.

Here are 6 compounds together with their reported answers.
compound	viability at 10 µM, %
C=C1C(=O)O[C@@H]2[C@H]3C(C)=CC[C@@]34O[C@@]4(C)CC[C@@H]12	92
C=C1CC[C@H]2C(=C)CC[C@H]3C(=C)C(=O)O[C@@H]3[C@@H]12	93
C=C1C(=O)O[C@@H]2[C@@H]3[C@@H](CC[C@@]3(C)O)[C@](C)(O)CC[C@@H]12	96
C=C1C(=O)O[C@@H]2[C@@H]3[C@@H](CC[C@@]3(C)O)C(=C)CC[C@@H]12	92
[2H][C@@]1(CN(C)C)C(=O)O[C@@H]2[C@@H]3[C@@H](CCC34CC4)C3(CC[C@H]21)CC3	95
C=C1C(=O)O[C@H]2[C@H]1CC[C@@](C)(OC)C1CC[C@@](C)(O)[C@@H]12 (stereo partly shown)	95

Endpoint output: viability at 10 µM of C=C1C(=O)O[C@@H]2[C@@H]3[C@@H](CCC34CC4)C3(CC[C@@H]12)CC3 . Value? 95

---

- Test system: cancer stem cells
- method-description: Survival rate of cancer stem cells after test compound is added (flow cytometry, Annexin V-FITC/PI, clinical specimen)
- Format: cell-based, patient
- condition-set: Homo sapiens, 18 h, Gastric cancer; 10.0 μM
viability at 10 µM values by entry
Kindly answer with a numeric value in %, unit omitted.

Here are 5 compounds together with their reported answers.
compound	recorded-value
CCOC(=O)[C@@H]1CCCN1C[C@@H]1C(=O)O[C@H]2[C@H]1CCC1(CC1)[C@@H]1CCC3(CC3)[C@H]21 [Compound 29]	79
CN(C)C[C@@H]1C(=O)O[C@H]2[C@H]1CCC1(CC1)[C@@H]1CCC3(CC3)[C@H]21 [Compound 35]	85
C=C1C(=O)O[C@@H]2[C@@H]3[C@@H](CC[C@@]3(C)O)C(=C)CC[C@@H]12 [Compound 48]	51
CC1=C2CC[C@@](C)(O)[C@@H]2[C@H]2OC(=O)[C@@H](CN(C)C)[C@@H]2CC1 [Compound 23]	82
C=C1C(=O)O[C@H]2[C@H]1CC[C@@](C)(OC)C1CC[C@@](C)(O)[C@@H]12 (stereo partly shown) [Compound 47]	82

Endpoint output: viability at 10 µM of C=C1C(=O)O[C@@H]2[C@@H]3[C@@H](CCC34CC4)C3(CC[C@@H]12)CC3 [Compound 26] . Value? 83

Endpoint output: viability at 10 µM of C=C1CC[C@H]2C(=C)CC[C@H]3C(=C)C(=O)O[C@@H]3[C@@H]12 [Compound 25] . Value? 43

Endpoint output: viability at 10 µM of C=C1C(=O)O[C@H]2[C@H]1CC[C@]1(C)O[C@@]13CC[C@@](C)(O)[C@H]23 [Compound 24] . Value? 51

Endpoint output: viability at 10 µM of C=C1C(=O)O[C@@H]2[C@@H]3[C@@H](CC[C@@]3(C)O)[C@](C)(O)CC[C@@H]12 [Compound 49] . Value? 85

Endpoint output: viability at 10 µM of CN(C)C[C@@H]1C(=O)O[C@H]2[C@H]1CCC1(CC1)[C@@H]1CCC3(CC3)[C@H]21 [Compound 27] . Value? 81

---

- Test system: cancer cells
- method-description: Survival rate of cancer cells after test compound is added (flow cytometry, Annexin V-FITC/PI, clinical specimen)
- Format: cell-based, patient
- condition-set: Homo sapiens, 18 h, CML; 10.0 μM; read-out: Survival rate (%) All cells (Stem cells and ordinary cells)
value-kind: viability at 10 µM (%)
Kindly answer with a numeric value in %, unit omitted.

Here are 3 compounds together with their reported answers.
compound	result-units	viability at 10 µM
C=C1C(=O)O[C@@H]2[C@H]3C(C)=CC[C@@]34O[C@@]4(C)CC[C@@H]12 [Compound 50]	%	64
CC1=C2CC[C@@](C)(O)[C@@H]2[C@H]2OC(=O)[C@@H](CN(C)C)[C@@H]2CC1 [Compound 23]	%	91
CCOC(=O)[C@@H]1CCCN1C[C@@H]1C(=O)O[C@H]2[C@H]1CCC1(CC1)[C@@H]1CCC3(CC3)[C@H]21 [Compound 29]	%	87

Endpoint output: viability at 10 µM of CN(C)C[C@@H]1C(=O)O[C@H]2[C@H]1CCC1(CC1)[C@@H]1CCC3(CC3)[C@H]21 [Compound 35] . Value? 91

---

- Test system: cancer stem cells
- method-description: Survival rate of cancer stem cells after test compound is added (flow cytometry, Annexin V-FITC/PI, clinical specimen)
- Assay type: cell-based, patient
- condition-set: Homo sapiens, 18 h, Laryngeal cancer; 10.0 μM
value-kind: viability at 10 µM (%)
Kindly answer with a numeric value in %, unit omitted.

Here are 2 molecules together with their reported answers.
C=C1CC[C@H]2C(=C)CC[C@H]3C(=C)C(=O)O[C@@H]3[C@@H]12 64
CC1=C2CC[C@@](C)(O)[C@@H]2[C@H]2OC(=O)[C@@H](CN(C)C)[C@@H]2CC1 79

Now consider a different molecule.
Endpoint output: viability at 10 µM of C=C1C(=O)O[C@@H]2[C@@H]3[C@@H](CCC34CC4)C3(CC[C@@H]12)CC3 . Value? 80
